target: B-Raf (V600E)-kinase (Homo sapiens (Human), UniProt P15056, V600E); assay: Kinase test B-Raf (V600E); conditions: 250 μM ATP, biotinylated MEK1 substrate
Sequence (P15056 whole entry V600E): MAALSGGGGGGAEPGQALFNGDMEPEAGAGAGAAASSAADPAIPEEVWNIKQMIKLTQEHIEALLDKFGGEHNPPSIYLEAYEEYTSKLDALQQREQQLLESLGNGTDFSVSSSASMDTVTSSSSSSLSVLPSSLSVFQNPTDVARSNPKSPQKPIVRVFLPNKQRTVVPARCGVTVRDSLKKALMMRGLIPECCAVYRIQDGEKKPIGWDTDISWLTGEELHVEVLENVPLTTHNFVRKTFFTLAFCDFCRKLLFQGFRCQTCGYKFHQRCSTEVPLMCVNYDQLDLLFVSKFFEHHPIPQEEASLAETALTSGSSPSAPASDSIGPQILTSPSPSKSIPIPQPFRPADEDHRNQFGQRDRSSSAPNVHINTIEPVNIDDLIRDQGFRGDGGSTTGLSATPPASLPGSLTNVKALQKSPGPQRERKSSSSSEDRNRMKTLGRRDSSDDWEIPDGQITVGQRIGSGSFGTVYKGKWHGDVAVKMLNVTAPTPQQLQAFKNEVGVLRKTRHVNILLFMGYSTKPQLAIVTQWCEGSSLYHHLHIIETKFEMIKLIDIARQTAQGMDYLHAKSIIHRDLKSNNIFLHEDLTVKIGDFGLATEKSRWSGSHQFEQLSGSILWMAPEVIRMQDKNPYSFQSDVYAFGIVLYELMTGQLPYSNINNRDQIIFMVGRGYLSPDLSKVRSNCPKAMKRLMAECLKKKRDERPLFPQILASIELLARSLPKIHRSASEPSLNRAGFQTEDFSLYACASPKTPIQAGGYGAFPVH
Reported log10(IC50) is given for each of the following compounds.
Reminder: these figures are log10 of reported IC50, in nM before transformation.

These recorded examples may help you get a feel for the data.
Cc1ccc(C(=O)Nc2cccc(C(C)(C)C#N)c2)cc1Nc1ncnc2ccc(N3CCOCC3)nc12	0.85
COCCN1CCN(c2ccc3ncnc(Sc4cc(C(=O)Nc5cc(N6CCN(C)CC6)cc(C(F)(F)F)c5)ccc4C)c3n2)CC1	2.28
COc1c(NC(=O)c2ccc(C)c(Nc3ncnc4ccc(C)nc34)c2)cc(C(C)(C)C)cc1NS(C)(=O)=O	2.63
COc1c(NC(=O)c2ccc(C)c(Nc3ncnc4ccc(C5CCNC5)nc34)c2)cc(C(C)(C)C)cc1NS(C)(=O)=O (centres unmarked)	2.18
COc1c(NC(=O)c2ccc(C)c(Nc3ncnc4ccc(C5CCN(CC6CC6)CC5)nc34)c2)cc(C(C)(C)C)cc1NS(C)(=O)=O	2.46

Lookup: Missing value: log10(IC50), B-Raf (V600E)-kinase (Homo sapiens (Human), UniProt P15056, V600E), entry "CCCN1CCC(Cc2ccc3ncnc(Nc4cc(C(=O)Nc5cc(C(C)(C)C)cc(NS(C)(=O)=O)c5OC)ccc4C)c3n2)CC1" . Fill in?
Found: 2.77

Lookup: Missing value: log10(IC50), B-Raf (V600E)-kinase (Homo sapiens (Human), UniProt P15056, V600E), entry "COc1c(NC(=O)c2ccc(C)c(Nc3ncnc4ccc(N5CCOCC5)nc34)c2)cc(C(C)(C)C)cc1NS(C)(=O)=O" . Fill in?
Found: 1.70

Lookup: Missing value: log10(IC50), B-Raf (V600E)-kinase (Homo sapiens (Human), UniProt P15056, V600E), entry "COc1c(NC(=O)c2ccc(C)c(Nc3ncnc4ccc(C5CCN(C)CC5)nc34)c2)cc(C(C)(C)C)cc1NS(C)(=O)=O" . Fill in?
Found: 2.18

Lookup: Missing value: log10(IC50), B-Raf (V600E)-kinase (Homo sapiens (Human), UniProt P15056, V600E), entry "COc1ccc(NC(=O)c2ccc(C)c(Nc3ncnc4cnc(N5CCN(C)CC5)cc34)c2)cc1C(F)(F)F" . Fill in?
Found: 2.35

Lookup: Missing value: log10(IC50), B-Raf (V600E)-kinase (Homo sapiens (Human), UniProt P15056, V600E), entry "Cc1ccc(C(=O)n2nc(C(C)(C)C)cc2N)cc1Nc1ncnc2ccc(N3CCOCC3)nc12" . Fill in?
Found: 3.31

Lookup: Missing value: log10(IC50), B-Raf (V600E)-kinase (Homo sapiens (Human), UniProt P15056, V600E), entry COc1c(NC(=O)c2ccc(C)c(Nc3ncnc4ccc(C5CCCNC5)nc34)c2)cc(C(C)(C)C)cc1NS(C)(=O)=O (centres unmarked) . Fill in?
Found: 2.36

Lookup: Missing value: log10(IC50), B-Raf (V600E)-kinase (Homo sapiens (Human), UniProt P15056, V600E), entry "COCCN1CCN(c2ccc3ncnc(Nc4cc(C(=O)Nc5ccc(OC)c(C(F)(F)F)c5)ccc4C)c3n2)CC1" . Fill in?
Found: 2.15

Lookup: Missing value: log10(IC50), B-Raf (V600E)-kinase (Homo sapiens (Human), UniProt P15056, V600E), entry "COc1c(NC(=O)c2ccc(C)c(Nc3ncnc4ccc(CC5CCNCC5)nc34)c2)cc(C(C)(C)C)cc1NS(C)(=O)=O" . Fill in?
Found: 2.23

Lookup: Missing value: log10(IC50), B-Raf (V600E)-kinase (Homo sapiens (Human), UniProt P15056, V600E), entry "COc1c(NC(=O)c2ccc(C)c(Nc3ncnc4ccc(N5CCN(CCN6CCOCC6)CC5)nc34)c2)cc(C(C)(C)C)cc1NS(C)(=O)=O" . Fill in?
Found: 2.80

* * *

Target: B-Raf (V600E)-kinase (Homo sapiens (Human), UniProt P15056, V600E)
Assay: Kinase test B-Raf (V600E)
Conditions: 250 μM ATP, biotinylated MEK1 substrate
Protocol: In a dilution series 10 μL of test substance solution are placed in a multiwell plate. The dilution series is selected so that generally a range of concentrations of 2 μM to 0.128 nM or 0.017 nM is covered. […] After the addition of 200 μL Enhancement Solution (Perkin Elmer, #4001-0010/#1244-105) the mixture is shaken for 10 min at RT and then measured in a Wallac Victor using the program “Delfia Time Resolved Fluorescence (Europium)”. […]
Reported pIC50 is given for each of the following molecules.
Remember, pIC50 is on a log scale: it is -log10 of the molar concentration.

Cc1ccc(C(=O)Nc2cc(CN3CCCC3)cc(C(F)(F)F)c2)cc1Nc1ncnc2ccc(N3CCOCC3)nc12 [III-9]	8.40
COCCN1CCN(c2ccc3ncnc(Nc4cc(C(=O)Nc5cc(C(C)(C)C)on5)ccc4C)c3n2)CC1 [III-11]	7.46
CCN1CCC(Cc2ccc3ncnc(Nc4cc(C(=O)Nc5cc(C(C)(C)C)cc(NS(C)(=O)=O)c5OC)ccc4C)c3n2)CC1 [III-45]	6.28
COCCN1CCC(c2ccc3ncnc(Nc4cc(C(=O)Nc5cc(C(C)(C)C)cc(NS(C)(=O)=O)c5OC)ccc4C)c3n2)CC1 [III-36]	6.35
Cc1ccc(C(=O)Nc2cc(C(C)(C)C)on2)cc1Nc1ncnc2ccc(C3=CCNCC3)nc12 [III-51]	7.64
Cc1ccc(C(=O)Nc2cc(C(C)(C)C)on2)cc1Nc1ncnc2ccc(N3CCN(CC4CCN(C)CC4)CC3)nc12 [III-12]	7.92
COCCN1CCN(c2ccc3ncnc(Sc4cc(C(=O)Nc5cc(C(C)(C)C)on5)ccc4C)c3n2)CC1 [III-54]	6.57

// next entry
Lookup: Fill blank: measured pIC50 of the molecule COc1c(NC(=O)c2ccc(C)c(Nc3ncnc4ccc(C5CCN(C(C)C)CC5)nc34)c2)cc(C(C)(C)C)cc1NS(C)(=O)=O [III-34] is ____.
Found: 6.59
